Exercise: for every item that follows, state its recorded normalized growth.
- test_description: chemical genetic growth profiling, strain panel (AID 1159580);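 note: tested at 20 µM; growth read once vehicle control cultures reached saturation at 30 °C; 1 = growth at the plate median or of vehicle wells; lower values mean less growth of the strain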
- condition_info: S. cerevisiae deletion strains, growth OD, locus YGR229C, strain SMI1, stronger effect = lower value
In all, about 5,500 compounds went through this assay and about 2,000 (36%) were called active. Roughly 18% stayed inconclusive and do not appear here. The list shows a part of the results.

# input What measured normalized growth goes with NCCC(=O)N[C@@H](Cc1cnc[nH]1)C(=O)O ?
# output 1.02 (inactive)

# input What measured normalized growth goes with N#CC(C#N)=CNc1cccc(N)n1 ?
# output 1.02 (inactive)

# input What measured normalized growth goes with CC12CCC3C4CCC(=O)C=C4CCC3C1CCC2=O (stereo not drawn) ?
# output 1.01 (inactive)

# input What measured normalized growth goes with Nc1ncnc2c1ncn2C1CCCC1 ?
# output 1.02 (inactive)

# input What measured normalized growth goes with S=c1[nH]nc(SCCSc2n[nH]c(=S)s2)s1 ?
# output 0.987 (inactive)

# input What measured normalized growth goes with C=C1SC(=Nc2cccc(OC)c2)N(C(=O)C(c2ccccc2)C2CCCC2)C1(C)C (stereo not drawn) ?
# output 0.983 (inactive)

# input What measured normalized growth goes with CCCC(CC(=O)O)(C(=O)O)c1ccccc1 (stereo not drawn) ?
# output 1.01 (inactive)

# input What measured normalized growth goes with Cc1cc(=O)[nH]c(-c2ccccn2)n1 ?
# output 1.02 (inactive)

# input What measured normalized growth goes with O=[N+]([O-])c1ccccc1SCc1n[nH]c(=S)n1-c1cccc(C(F)(F)F)c1 ?
# output 0.994 (inactive)

# input What measured normalized growth goes with Cc1ccc(S(=O)(=O)NC(=O)NN2CC3CCCC3C2)cc1 (stereo not drawn) ?
# output 1.01 (inactive)

# input What measured normalized growth goes with c1cc2c(cc1N=C1SCC3CCCCN13)OCO2 (stereo not drawn) ?
# output 0.997 (inactive)

# input What measured normalized growth goes with CC(C)(Sc1cc(C(C)(C)C)c(O)c(C(C)(C)C)c1)Sc1cc(C(C)(C)C)c(O)c(C(C)(C)C)c1 ?
# output 1.02 (inactive)

# input What measured normalized growth goes with CC(=O)Nc1ccc(OCC(O)CNC(C)C)cc1 (stereo not drawn) ?
# output 1 (inactive)

---

Exercise: for every item that follows, state its recorded normalized growth.
- test_description: chemical genetic growth profiling, strain panel (AID 1159580)
- condition_info: S. cerevisiae deletion strains, growth OD, locus YDR137W, strain rgp1, stronger effect = lower value
Out of some 5,500 compounds screened, about 2,000 (36%) were called active. About 18% were inconclusive and are not listed. The list shows a part of the results.
Give the figure by itself; no unit, no explanation.

# input What measured normalized growth goes with O=C(O)CC(O)(CC(=O)O)C(=O)O ?
# output 1

# input What measured normalized growth goes with COc1cc(N)c(Cl)cc1C(=O)NC1CCN(Cc2ccccc2)CC1 ?
# output 1.01

# input What measured normalized growth goes with CC(C)(Sc1cc(C(C)(C)C)c(O)c(C(C)(C)C)c1)Sc1cc(C(C)(C)C)c(O)c(C(C)(C)C)c1 ?
# output 0.99

# input What measured normalized growth goes with CCCCCCCCCCCCCCC(C(=O)O)C(O)(CC(=O)OC)C(=O)O (configuration not stated) ?
# output 0.999

# input What measured normalized growth goes with N=C(N)SCCN ?
# output 1

# input What measured normalized growth goes with C#C[C@]1(OC(C)=O)CCC2C3CCC4=CC(=O)CC[C@@H]4C3CC[C@@]21C (some centres not stated) ?
# output 0.982

# input What measured normalized growth goes with CC1(C)CC[C@]2(C)CC[C@]3(C)C(=CCC4[C@@]5(C)CC[C@H](O)C(C)(C)C5CC[C@]43C)C2C1 (some centres not stated) ?
# output 1.01

---

- test_description: chemical genetic growth profiling, strain panel (AID 1159580);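 note: tested at 20 µM; growth read once vehicle control cultures reached saturation at 30 °C; 1 = growth at the plate median or of vehicle wells; lower values mean less growth of the strain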
- condition_info: S. cerevisiae deletion strains, growth OD, locus YJR066W, strain TOR1, stronger effect = lower value
In all, about 5,500 compounds went through this assay and about 2,000 (36%) were called active. Not shown: some 18% with an inconclusive outcome. This is one part of the list.
Exercise: for every item that follows, state its recorded normalized growth.
Give the figure by itself; no unit, no explanation.

# input What measured normalized growth goes with COC(=O)C[C@H]1C(C)(C)C2(O)OC34CC2C(=O)[C@]1(C)C3CC[C@]1(C)C4=CC(=O)O[C@H]1c1ccoc1 (some centres undefined) ?
# output 0.92

# input What measured normalized growth goes with CN(C)CCCSC(=N)N ?
# output 0.903

# input What measured normalized growth goes with CCCc1nc(-c2ccccn2)[nH]c(=O)c1CC1CC1 ?
# output 0.887

# input What measured normalized growth goes with Cc1csc(NC(=O)Nc2ccc(C(F)(F)F)cc2)c1Cl ?
# output 0.92

---

Exercise: for every item that follows, state its recorded normalized growth.
- test_description: chemical genetic growth profiling, strain panel (AID 1159580);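 note: tested at 20 µM; growth read once vehicle control cultures reached saturation at 30 °C; 1 = growth at the plate median or of vehicle wells; lower values mean less growth of the strain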
- condition_info: S. cerevisiae deletion strains, growth OD, locus YOR144C, strain elg1, stronger effect = lower value
Out of some 5,500 compounds screened, about 2,000 (36%) were called active. About 18% were inconclusive and are not listed. This is one part of the list.
Give the figure by itself; no unit, no explanation.

# input What measured normalized growth goes with COc1c(CC(=O)c2cc3c(cc2O)OC(C)(C)C(O)C3)ccc2c1C=CC(C)(C)O2 (configuration not stated) ?
# output 0.995

# input What measured normalized growth goes with C[C@@H]1OC(O[C@H]2[C@H](O)[C@@H](O)[C@H](OC[C@H]3O[C@@H](OC(=O)[C@]45CCC(C)(C)CC4C4=CCC6[C@@]7(C)CC[C@H](OC8OC[C@H](O)[C@H](O)[C@H]8OC8O[C@@H](C)[C@H](O)[C@@H](O)[C@H]8O)[C@@](C)(CO)C7CC[C@@]6(C)[C@]4(C)CC5)[C@H](O)[C@@H](O)[C@@H]3O)O[C@@H]2CO)[C@H](O)[C@H](O)[C@H]1O (some centres not stated) ?
# output 0.997

# input What measured normalized growth goes with O=c1cc(CO)occ1O ?
# output 1.03

# input What measured normalized growth goes with COc1ccc2[nH]cc(CCN)c2c1 ?
# output 0.985

# input What measured normalized growth goes with Cc1cc(O)cc(=O)o1 ?
# output 0.989

# input What measured normalized growth goes with CC(=O)OC1CC[C@@]2(C)C(CC[C@]3(C)C2CCC2C4CC(C)(C)CCC4(C(=O)O)CC[C@]23C)C1(C)C (some centres not stated) ?
# output 0.989

# input What measured normalized growth goes with CC(=O)O[C@H]1CC[C@@]2(C)C(CC[C@]3(C)C2CC=C2C4CC(C)(C)CC[C@]4(C)CC[C@]23C)C1(C)C (some centres not stated) ?
# output 1.01

---

Exercise: for every item that follows, state its recorded normalized growth.
- test_description: chemical genetic growth profiling, strain panel (AID 1159580);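 note: tested at 20 µM; growth read once vehicle control cultures reached saturation at 30 °C; 1 = growth at the plate median or of vehicle wells; lower values mean less growth of the strain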
- condition_info: S. cerevisiae deletion strains, growth OD, locus YOR231W, strain MKK1, stronger effect = lower value
The whole screen tested about 5,500 compounds, of which about 2,000 (36%) were called active. Inconclusive results (about 18%) are left out. Some of the results follow. Where a SMILES comes first, the peptide text is derived from it. The star is where a group is joined. For = O=C*
Give the figure by itself; no unit, no explanation.

# input What measured normalized growth goes with COC(=O)C[C@H]1C(C)(C)C2(O)OC34CC2C(=O)[C@]1(C)C3CC[C@]1(C)C4=CC(=O)O[C@H]1c1ccoc1 (stereo not given in full) ?
# output 1.01

# input What measured normalized growth goes with CCN1C[C@]2(OC(=O)c3ccccc3NC(C)=O)CCC(OC)[C@]34C1[C@H](CC23)[C@@]1(O)CC(OC)[C@H]2CC4C1(O)[C@H]2OC (stereo not given in full) ?
# output 0.978

# input What measured normalized growth goes with C[C@@H]1CC[C@]2(C(=O)O)CC[C@]3(C)C(=CCC4[C@@]5(C)CC[C@H](O)C(C)(C)C5CC[C@]43C)C2[C@H]1C (stereo not given in full) ?
# output 1.02

# input What measured normalized growth goes with NC12CC3CC(CC(C3)C1)C2 ?
# output 1.02

# input What measured normalized growth goes with Nc1ccc(S(=O)(=O)Nc2ccnn2-c2ccccc2)cc1 ?
# output 0.974

# input What measured normalized growth goes with C[C@H]1[C@H](C)CC[C@]2(CO)CC[C@]3(C)C(=CCC4[C@@]5(C)CC[C@H](O)C(C)(C)C5CC[C@]43C)[C@H]12 (stereo not given in full) ?
# output 0.996

# input What measured normalized growth goes with CSCCC(NC=O)C(=O)NC(Cc1ccccc1)C(=O)O (stereo not drawn) (For-Met-Phe-OH; configuration not given here) ?
# output 1.02

# input What measured normalized growth goes with COC(=O)Nc1nc2ccc(Sc3ccccc3)cc2[nH]1 ?
# output 0.973

# input What measured normalized growth goes with CCOC(=O)OC(C)OC(=O)C1N2C(=O)C(NC(=O)[C@H](N)c3ccccc3)C2SC1(C)C (stereo not given in full) ?
# output 0.978

# input What measured normalized growth goes with Nc1c2c(nc3ccccc13)CCCC2 ?
# output 0.985
